tested on: HepG2-TUBA1B-RELA; assay: phenotypically active (imaging signature differs from DMSO and reproducible) at any of 0.3-9 uM (binary (1 = active, 0 = inactive)); higher = active; conditions: treatment time: 24 h
Where a name gives a salt, the structure may show the parent alone.
Measurement kind: phenotypically active
Write the number on its own, no unit after it.

Consider the worked cases shown below.
O=C1CCc2cc(OCCCCc3nnnn3C3CCCCC3)ccc2N1
0
Cn1cc(-c2[nH]c3cc(NC(=O)[C@H](N)C4CCCCC4)cc4c3c2C=NNC4=O)cn1
1
CO[C@H]1C[C@@H]2CC[C@@H](C)[C@@](O)(O2)C(=O)C(=O)N2CCCC[C@H]2C(=O)O[C@H]([C@H](C)C[C@@H]2CC[C@@H](OC(=O)C(C)(CO)CO)[C@H](OC)C2)CC(=O)[C@H](C)C=C(C)[C@@H](O)[C@@H](OC)C(=O)[C@H](C)C[C@H](C)C=CC=CC=C1C
1

Return phenotypically active (reported value) for this compound: "Cc1cc(O)cc2c1C(=O)Oc1cc3c(c(O)c1O2)C(=O)OC3"
0

Answer with the recorded phenotypically active for the compound listed here: CC[C@@H]1C(=O)OC[C@@H]1Cc1cncn1C [Pilocarpine hydrochloride]
0

State, in one line, measured phenotypically active of "CC(C)(C)c1ccc(C(=O)Nc2cn3cc(-n4ccnc4)ccc3n2)cc1"
0

---

Each entry below lists one item and its recorded phenotypically active value.
test system: A549-GM130-SQSTM1; assay: phenotypically active (imaging signature differs from DMSO and reproducible) at any of 0.3-9 uM (binary (1 = active, 0 = inactive)); higher = active; conditions: treatment time: 24 h
Structures can show the parent of a compound that is named as a salt.
Answer with a number only.

Use these answered entries as a reference point.
CC(C)C1=CC2=CCC3[C@](C)(CCC[C@]3(C)C(=O)O)C2CC1 (stereo partly drawn) [Abietic Acid]
0
O=C1NCCN1CCN1CCC(c2cn(-c3ccc(F)cc3)c3ccc(Cl)cc23)CC1 [sertindole]
1
COC(=O)C1=CO[C@@H](C)[C@H]2CN3CCc4c([nH]c5ccccc45)[C@@H]3C[C@H]12 [Ajmalicine hydrochloride]
0
CCN(Cc1ccncc1)C(=O)C(CO)c1ccccc1 (stereo not drawn) [tropicamide]
0
CCN(CC)CC(=O)Nc1c(C)cccc1C [lidocaine]
0
CCCCc1c(O)n(-c2ccccc2)n(-c2ccccc2)c1=O [phenylbutazone]
0
COc1ccc(CN(CCN(C)C)c2ccccn2)cc1 [mepyramine]
0

Proceeding to the next molecule to report its phenotypically active.
Given the molecule CC(C)n1c(/C=C/[C@@H](O)C[C@@H](O)CC(=O)O)c(-c2ccc(F)cc2)c2ccccc21.CC(C)n1c(/C=C/[C@H](O)C[C@H](O)CC(=O)O)c(-c2ccc(F)cc2)c2ccccc21 [Fluvastatin sodium] , write its reported phenotypically active.
1

---

tested on: A549-ACTB-RAB5A; experiment: phenotypically active (imaging signature differs from DMSO and reproducible) at any of 0.3-9 uM (binary (1 = active, 0 = inactive)); higher = active; conditions: treatment time: 24 h
Entries and their phenotypically active values follow.
// no unit string in output, number only

Past entries and their recorded results:
Cc1ccc(S(=O)(=O)c2ccc([N+](=O)[O-])o2)cc1
1
CCN(CC)CC(=O)Nc1c(C)cccc1C [lidocaine]
0
C=CC(=O)N1CCC[C@@H](n2nc(-c3cccc(C(=O)Nc4ccc(C(C)C)c(C)c4)c3)c3c(N)ncnc32)C1
1
C=CCc1ccc(O)c(-c2ccc(O)c(CC=C)c2)c1 [Honokiol]
1
NNCCc1ccccc1 [phenelzine]
0

Give recorded phenotypically active. "Cn1cccc1/C=C1\C(=O)NC(=O)c2ccccc21"
0

These entries and their values trace back to the supplement of paper PMC7411054.
